Target: CaHse1
Assay: SPOT peptide array binding signal intensity (averaged, normalized) (arbitrary units (background-subtracted, floor 0; scale differs between SH3 domains)); higher = stronger binding of the SH3 domain to the peptide
VALUE_TYPE: SPOT peptide array binding signal intensity

NPNRRAPRRPLSTQH: 108
TTNRGPPPLPPRANV: 73
GATNNAPTLPKRKNP: 2.25
VTHRLRISIPGITGR: 56.8
